Data provenance is patent US20090022728A1.

Reported koff values are given for each entry in this list.
# experimentalSystem: T1, biotinylated Aβ1-40 peptide (biotinylated (N-biotinylated in Example 7))
# T1 construct: captured on streptavidin (SA) chip; also called Biotinylated Aβ peptide 1-40; Aβ1-40 on SA chip
# T1 sequence (peptide, as listed by the source): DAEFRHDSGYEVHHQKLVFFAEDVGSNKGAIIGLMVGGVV
# experimentNotes: SPR, Fab over Aβ1-40 on SA chip
Just the number please, in s⁻¹, no unit attached.

Sample records with koff:
9TL variant M32 Fab (Fab, V domains shown, Fab; human IgG2 CH1 and kappa CL) VH: QVQLVQSGAEVKKPGASVKVSCKASGYYTEAYYIHWVRQAPGQGLEWMGRIDPATGNTKYAPRLQDRVTMTRDTSTSTVYMELSSLRSEDTAVYYCASIYSLPVYWGQGTTVTVSS VL: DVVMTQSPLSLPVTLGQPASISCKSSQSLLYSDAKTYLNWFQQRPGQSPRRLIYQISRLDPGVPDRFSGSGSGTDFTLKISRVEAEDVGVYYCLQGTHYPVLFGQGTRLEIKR: 0.02
9TL variant M3 Fab (Fab, V domains shown, Fab; human IgG2 CH1 and kappa CL) VH: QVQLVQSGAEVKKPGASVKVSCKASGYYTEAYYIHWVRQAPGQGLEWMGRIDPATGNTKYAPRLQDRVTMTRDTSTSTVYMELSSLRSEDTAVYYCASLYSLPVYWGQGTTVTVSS VL: DVVMTQSPLSLPVTLGQPASISCKSSQSLLYSDAKTYLNWFQQRPGQSPRRLIYQISRLDPGVPDRFSGSGSGTDFTLKISRVEAEDVGVYYCCQGTHYPVLFGQGTRLEIKR: 0.0013
9TL variant M24 Fab (Fab, V domains shown, Fab; human IgG2 CH1 and kappa CL) VH: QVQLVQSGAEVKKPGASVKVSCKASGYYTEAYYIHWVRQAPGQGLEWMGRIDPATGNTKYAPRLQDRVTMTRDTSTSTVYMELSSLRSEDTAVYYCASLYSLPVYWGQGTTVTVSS VL: DVVMTQSPLSLPVTLGQPASISCKSSQSLLYSDAKTYLNWFQQRPGQSPRRLIYQISRLDPGVPDRFSGSGSGTDFTLKISRVEAEDVGVYYCLQGTHYPHLFGQGTRLEIKR: 0.006

Query :: # get_value(readout='koff', item= 9TL variant M19 Fab (Fab, V domains shown, Fab; human IgG2 CH1 and kappa CL) VH: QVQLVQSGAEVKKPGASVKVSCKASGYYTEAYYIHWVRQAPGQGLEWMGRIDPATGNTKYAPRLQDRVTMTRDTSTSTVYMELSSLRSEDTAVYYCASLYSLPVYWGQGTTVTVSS VL: DVVMTQSPLSLPVTLGQPASISCKSSQSLLYSDAKTYLNWFQQRPGQSPRRLIYQISRLDPGVPDRFSGSGSGTDFTLKISRVEAEDVGVYYCLQGTHMPVLFGQGTRLEIKR )
Result :: 0.0017

Query :: Data request, read-out koff, for 9TL variant M7 Fab (Fab, V domains shown, Fab; human IgG2 CH1 and kappa CL) VH: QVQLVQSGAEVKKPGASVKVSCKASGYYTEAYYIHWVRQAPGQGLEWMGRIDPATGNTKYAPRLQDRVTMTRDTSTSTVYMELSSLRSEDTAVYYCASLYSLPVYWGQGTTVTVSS VL: DVVMTQSPLSLPVTLGQPASISCKSSQSLLYSDAKTYLNWFQQRPGQSPRRLIYQISRLDPGVPDRFSGSGSGTDFTLKISRVEAEDVGVYYCSQGTHYPVLFGQGTRLEIKR
Result :: 0.006
